System: SNB-19 CNS
assayMethodText: NCI tumour cell line growth inhibition, 48 h
recordedMetric: TGI

Examples with answers:
# compound, measurement
data = [
    ("CC(C)N(C(=O)C12C3C4C5C3C1(C(=O)O)C5C42)C(C)C (stereo unspecified)", "> 100 µM"),
    ("COc1cc2c3c(n(CCCN=[N+]=[N-])c(=O)c2cc1OC)-c1ccccc1C3=O", "> 100 µM"),
    ("O/N=C1/CCCC/C1=C\\c1ccc(Cl)c(Cl)c1", "91.6 µM"),
    ("CC(C)CCN(CCC(C)C)CC(=O)Nc1ccc(S(=O)(=O)c2ccc(NC(=O)CN(CCC(C)C)CCC(C)C)cc2)cc1", "10.3 µM"),
    ("CCCC(=O)OCC1OC(n2cc(F)c(=O)[nH]c2=O)C(F)C1O (stereo unspecified)", "> 100 µM"),
]

// next entry
Form field - read-out: TGI; system: SNB-19 CNS; submitted item: Cc1cc(Cl)ccc1NC(=O)/C(=N\NC(C)(C)C)C(C#N)c1nc(-c2ccc([N+](=O)[O-])cc2)cs1 (stereo unspecified)
> 100 µM

====

Parameter: TGI. Scope: all listed entries.
Tested on: A498 renal
assayMethodText: NCI tumour cell line growth inhibition, 48 h

Examples with answers:
# compound, TGI
data = [
    ("O=C(COc1ccccc1)NNc1ccccc1", "> 300 µM"),
    ("O=C1/C(=C/c2ccccc2Cl)COc2ccc(Br)cc21", "> 100 µM"),
]

// next entry
What TGI value was documented for this compound, O=C(NC(CS)C(=O)O)c1c2ccccc2nc2ccccc12 (stereo not drawn) ?
> 100 µM

====

Test system: A549 NSCLC
assayMethodText: NCI tumour cell line growth inhibition, 48 h; in the data active means GI50 below about 0.43 µM; inactive means the rest
Write down one outcome, taken from active, inactive

Name the outcome recorded for "CCc1cc2c(c(OCC(F)(F)F)c(C(=O)NC3CCN(C(=O)CO)CC3)n2C)c(=O)n1CC(=O)c1ccccc1" in the assay.
inactive

====

Tested on: HOP-92 NSCLC
assayMethodText: NCI tumour cell line growth inhibition, 48 h
recordedMetric: TGI

# compound, measurement
records = [
    ("CC1OC(n2cc(F)c(=O)[nH]c2=O)CCC1=O (stereo not drawn)", "> 100 µM"),
    ("COc1ccc2cc3c4cc(OC)c(OC)cc4ccn3c2c1", "> 100 µM"),
]

What TGI value was documented for this compound, Cc1cc(Cl)ccc1NC(=O)/C(=N\NC(C)(C)C)C(C#N)c1nc(-c2ccc([N+](=O)[O-])cc2)cs1 (stereo not drawn) ?
> 100 µM

====

System: NCI/ADR-RES ovarian
assayMethodText: NCI tumour cell line growth inhibition, 48 h
recordedMetric: TGI

Examples with answers:
# molecule, target, recordedMetric, measurement
data = [
    ("CCS1=C2C(=O)CC(C)(C)CC2=Nc2ccccc21 (stereo not given)", "NCI/ADR-RES ovarian", "TGI", "> 100 µM"),
    ("C=C(CN(C)C)C(=O)c1ccccc1OC", "NCI/ADR-RES ovarian", "TGI", "65.3 µM"),
    ("CCCC(=O)OCC1OC(n2cc(F)c(=O)[nH]c2=O)C(F)C1O (stereo not given)", "NCI/ADR-RES ovarian", "TGI", "> 100 µM"),
    ("Cc1n[nH]c(=O)n1C1CC1", "NCI/ADR-RES ovarian", "TGI", "> 100 µM"),
    ("NC(=O)N/N=C\\CC(O)(C(F)(F)Cl)C(F)(F)Cl", "NCI/ADR-RES ovarian", "TGI", "> 10 µM"),
    ("COc1ccc(C(=O)/C=C/c2cc(-c3ccc(OC)c(OC)c3)n[nH]2)cc1OC", "NCI/ADR-RES ovarian", "TGI", "33.1 µM"),
    ("O=C(Nc1ccc(I)cc1F)c1cc(Br)ccc1O", "NCI/ADR-RES ovarian", "TGI", "4.5 µM"),
    ("CCCCCCCCCCCCc1ccc(S(=O)(=O)O)cc1.[Cu+2]", "NCI/ADR-RES ovarian", "TGI", "> 100 µM"),
]

What TGI value was documented for this molecule, "Cc1nc2ccc(Cl)cc2c2c1CCN2c1ccc(F)cc1" ?
> 100 µM

What TGI value was documented for this molecule, "c1ccc(/C(=N\Nc2nc3ccccc3[nH]2)c2ccccn2)cc1" ?
0.842 µM

What TGI value was documented for this molecule, "COc1cccc(S(=O)(=O)NC2=NCCN2C(=S)SN2CCn3c2nsc3=S)c1" ?
> 100 µM

What TGI value was documented for this molecule, "CCCN(CCC)c1ccc(/C=N/NC(=O)c2cccnc2)c(C)c1" ?
51.5 µM

What TGI value was documented for this molecule, "O=c1[nH]c(-c2ccc(Cl)c(Cl)c2)cn1-c1ccc(Cl)cc1" ?
> 100 µM

What TGI value was documented for this molecule, "CSc1nc(-c2ccccc2)[nH]c(=O)n1" ?
> 100 µM

====

System: SN12C renal
assayMethodText: NCI tumour cell line growth inhibition, 48 h
recordedMetric: TGI

Examples with answers:
# molSmiles, target, recordedMetric, measurement
records = [
    ("COc1ccc(C)c2sc(N(Cc3cccnc3)C(=O)c3ccc(C#N)cc3)nc12", "SN12C renal", "TGI", "> 100 µM"),
    ("Oc1ccc(Br)cc1C=Nc1c(NC2CCCCC2)oc2ccc(Br)cc12", "SN12C renal", "TGI", "> 100 µM"),
    ("CCCCCCCCCCCCc1ccc(S(=O)(=O)O)cc1.[Cu+2]", "SN12C renal", "TGI", "> 100 µM"),
    ("CCOC(=O)c1c(NC(=S)Nc2ccccc2)sc2c1CCN(C)C2", "SN12C renal", "TGI", "> 100 µM"),
    ("Cc1c(-c2ccccc2)c(C#N)c2nnn(-c3ccc(Cl)cc3)c(=O)n12", "SN12C renal", "TGI", "> 100 µM"),
    ("Cc1nc2ccccc2c(=O)n1/N=C(\\N=Nc1ccccc1)c1ccccc1Cl", "SN12C renal", "TGI", "> 68.1 µM"),
]

What TGI value was documented for this molecule, "COc1ccc(OC)c(N2CC(O)=C(c3nc4ccccc4s3)C2=N)c1" ?
> 100 µM

====

Test system: T-47D breast
assayMethodText: NCI tumour cell line growth inhibition, 48 h
Where a SMILES comes first, the peptide text is derived from it. [ ]: non-standard residue; d: D form. The star is where a group is joined. ξ: configuration not given here. ξD = NC(CC(=O)O)C(=O)O; Boc = CC(C)(C)OC(=O)*; Aib = CC(C)(N)C(=O)O; OBn = c1ccc(CO*)cc1
recordedMetric: TGI

Examples with answers:
# compound, TGI
measured = [
    ("CC(C)(C)OC(=O)NC(CC(=O)OCc1ccccc1)C(=O)NC(C)(C)C(N)=O (stereo unspecified) (Boc-[ξD](OBn)-[Aib]-NH2)", "> 100 µM"),
    ("Cc1cc(C)c(/C=C2\\C(=O)Nc3ccccc32)[nH]1", "> 100 µM"),
    ("NCCCN(CCCCN(CCCN)Cc1ccccc1)Cc1ccccc1", "> 100 µM"),
    ("CCOC(=O)c1cc(=O)c2cccc3c2n1CCS3", "> 100 µM"),
    ("OCc1ccc(-c2nc(-c3ccc4c(c3)OCO4)c(-c3ccccn3)[nH]2)cc1", "> 25 µM"),
]

What TGI value was documented for this compound, "O=C1c2ccccc2CC12Cc1cc3c(cc1C2)CCC3" ?
> 100 µM

====

Parameter: TGI. Scope: all listed entries.
Test system: SK-MEL-5 melanoma
assayMethodText: NCI tumour cell line growth inhibition, 48 h

# molSmiles, TGI
data = [
    ("Oc1ccc(Br)cc1C=Nc1c(NC2CCCCC2)oc2ccc(Br)cc12", "> 100 µM"),
    ("O=C(/C=C/c1ccc([N+](=O)[O-])cc1)N1CCN(CCOC(c2ccc(F)cc2)c2ccc(F)cc2)CC1", "> 100 µM"),
]

// next entry
Form field - read-out: TGI; system: SK-MEL-5 melanoma; submitted item: "COc1cc2c3c(n(CCCN=[N+]=[N-])c(=O)c2cc1OC)-c1ccc([N+](=O)[O-])cc1C3=O"
> 100 µM

====

Test system: NCI-H23 lung
assayMethodText: NCI tumour cell line growth inhibition, 48 h
recordedMetric: TGI

Examples with answers:
# compound, measurement
measured = [
    ("CC(=O)OCC12CC(CC1OC(C)=O)c1ccccc12 (stereo unspecified)", "> 100 µM"),
    ("CCCCCCCCCCC/C=C(/C(=O)CCCO[Si](C)(C)C(C)(C)C)C(=O)OC", "> 100 µM"),
]

What TGI value was documented for this compound, "COc1cc2c3c(n(CCCN=[N+]=[N-])c(=O)c2cc1OC)-c1ccc(F)cc1C3=O" ?
> 100 µM

What TGI value was documented for this compound, "COc1ccc2c(=O)c3ccoc3[nH]c2c1" ?
> 100 µM

What TGI value was documented for this compound, "C[n+]1c2ccccc2c(N=[N+]=[N-])c2ccccc21" ?
> 10 µM

What TGI value was documented for this compound, "CCn1nc(C2CCN(C(=O)CCO)CC2)nc1-c1cnc(N)c(-c2nnc(C(C)(C)C)o2)n1" ?
> 100 µM
